- SUBJECT OF TEST: 5α-reductase
- ASSAY METHOD TEXT: 5α-reductase inhibitory activity in vitro
- CONDITION: male rats' prostate enzyme, [4-C14]-testosterone, NADPH, 60 mins at 37° C., pH 7.4
pIC50: −log10 of the molar value.
Quick rule: pIC50 of at least 6 means Condition met, below that means Condition not met.

>  <MOLECULE>
Cc1c(OCc2ccc(CC3CCC3)cc2)ccc(C(=O)Nc2ccccc2OCCCC(=O)O)c1C

>  <SUBJECT OF TEST>
5α-reductase

>  <LABEL CLASS>
Condition not met

$$$$
>  <MOLECULE>
Cc1c(OC(C)c2ccc(CC(C)C)cc2)ccc(C(=O)Nc2ccccc2OCCCC(=O)O)c1C (stereo not drawn)

>  <SUBJECT OF TEST>
5α-reductase

>  <LABEL CLASS>
Condition met

$$$$
>  <MOLECULE>
CCCc1ccc(COc2ccc(C(=O)Nc3ccccc3OCCCC(=O)O)c(C)c2C)cc1

>  <SUBJECT OF TEST>
5α-reductase

>  <LABEL CLASS>
Condition met

$$$$
>  <MOLECULE>
Cc1ccccc1COc1ccc(C(=O)Nc2ccccc2OCCCC(=O)O)c(C)c1C

>  <SUBJECT OF TEST>
5α-reductase

>  <LABEL CLASS>
Condition met

$$$$
>  <MOLECULE>
Cc1c(OCc2ccccc2)ccc(C(=O)Nc2ccccc2OCCCC(=O)O)c1C

>  <SUBJECT OF TEST>
5α-reductase

>  <LABEL CLASS>
Condition not met

$$$$
>  <MOLECULE>
CC(C)Cc1ccc(COc2ccc(C(=O)Nc3ccccc3OCCCC(=O)O)c3c2CCCC3)cc1 [2(z)]

>  <SUBJECT OF TEST>
5α-reductase

>  <LABEL CLASS>
Condition met

$$$$
>  <MOLECULE>
CC(C)Cc1ccc(COc2ccc(C(=O)Nc3ccccc3OCCCC(=O)O)c(Cl)c2Cl)cc1

>  <SUBJECT OF TEST>
5α-reductase

>  <LABEL CLASS>
Condition not met

$$$$
>  <MOLECULE>
Cc1c(OCc2ccc(CC(C)C)cc2)ccc(C(=O)Nc2ccccc2OCCCC(=O)O)c1C

>  <SUBJECT OF TEST>
5α-reductase

>  <LABEL CLASS>
Condition met

$$$$
>  <MOLECULE>
Cc1c(OCc2ccc(Cl)cc2)ccc(C(=O)Nc2ccccc2OCCCC(=O)O)c1C

>  <SUBJECT OF TEST>
5α-reductase

>  <LABEL CLASS>
Condition not met

$$$$
>  <MOLECULE>
CC(C)Cc1ccc(COc2ccc(C(=O)Nc3ccccc3SCCCC(=O)O)c3c2CCCC3)cc1

>  <SUBJECT OF TEST>
5α-reductase

>  <LABEL CLASS>
Condition met

$$$$
>  <MOLECULE>
Cc1c(OCc2ccc(C(C)C)cc2)ccc(C(=O)Nc2ccccc2OCCCC(=O)O)c1C

>  <SUBJECT OF TEST>
5α-reductase

>  <LABEL CLASS>
Condition met

$$$$
>  <MOLECULE>
Cc1c(OC(C)c2ccc(CC(C)C)cc2)ccc(C(=O)Nc2ccccc2SCCCC(=O)O)c1C (stereo not drawn)

>  <SUBJECT OF TEST>
5α-reductase

>  <LABEL CLASS>
Condition met

$$$$
>  <MOLECULE>
Cc1c(OCCc2ccccc2)ccc(C(=O)Nc2ccccc2OCCCC(=O)O)c1C

>  <SUBJECT OF TEST>
5α-reductase

>  <LABEL CLASS>
Condition not met

$$$$

src = patent US4980372A
